Test system: PIK3CA(M1043I)
experimental.context: Compound Concentration (nM):1000;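 note: KINOMEscan scanMAX binding as percent activity remaining versus control; lower means stronger binding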
result.type: Percent Control

Sample answers from the record:
NS(=O)(=O)c1ccc(N/N=C2\C(=O)Nc3ccc(C(=O)NCCc4c[nH]cn4)cc32)cc1 [GW300660X]    81%
COc1cccc(-n2ncc3c(N/N=C/c4ccncc4)ncnc32)c1 [GW784752X]    100%
COc1cccc(-c2c[nH]c3c(N/N=C/c4ccncc4)ncnc23)c1 [GW814408X]    99%

Now for the compound whose Percent Control we want.
// compound CC1=C(C(=O)Nc2ccc3[nH]ncc3c2)C(c2ccc3ccccc3c2)CC(=O)N1 (stereo not shown) [GSK270822A] , assay PIK3CA(M1043I), Percent Control value: 74%

* * *

Tested on: RSK1(Kin.Dom.1-N-terminal)
Construct: gene RPS6KA1
experimental.context: Compound Concentration (nM):1000
Recorded Percent Control for the following molecules
API: value field is a number in %; no unit string.

Recorded results for 6 molecules are shown here.
COc1ccc2cc(-c3c(-c4ccncc4)nc(-c4ccc(S(C)(=O)=O)cc4C)n3C)ccc2c1 [SB-633825]    82
Cc1cc(O)cc(C)c1/C=C/c1cncc(C(N)=O)c1 [GW435821X]    100
NS(=O)(=O)c1ccc(N/N=C2\C(=O)Nc3ccc(C(=O)NCCc4c[nH]cn4)cc32)cc1 [GW300660X]    100
COc1cc(C)c(N(C)C(=O)CN(C)C)cc1Nc1nc(Nc2cccc(F)c2C(N)=O)c2cc[nH]c2n1 [GSK2219385]    56
COc1ccc2c(-c3ccnc(Nc4cccc(OC(F)(F)F)c4)n3)cnn2n1 [GW810372X]    100
COc1cc(C=NNc2ncnc3c2cnn3-c2ccccc2)ccc1O [GW513184X]    100

The molecule listed as CC1=C(C(=O)Nc2ccc3[nH]ncc3c2)C(c2ccc3ccccc3c2)CC(=O)N1 (stereo not drawn) [GSK270822A] has a reported Percent Control of 91

GET /value?item= Cl.c1ccc(Cc2nc3ccc(Nc4ncnc5ccccc45)cc3[nH]2)cc1 [GR269666A] &field=Percent Control returns 100

Noted for CC(C)COC(=O)c1ccc2c(c1)/C(=C/Nc1ccc(S(N)(=O)=O)cc1)C(=O)N2 [GW416981X] : its Percent Control reads 100

Note to self: Percent Control recorded for COc1ccccc1-c1cc(/C=C2\C(=O)Nc3ncc(Br)cc32)cc(Br)c1O [GW442130X] was 100

Percent Control reading for CCS(=O)(=O)c1ccc(OC)c(Nc2ncc(-c3cccc(OC)c3)o2)c1 [GW580509X] : 100

Lookup result for C[C@@H](Oc1cc(-n2cnc3ccc(OC4CCN(C)CC4)cc32)sc1C(N)=O)c1ccccc1Cl [GSK579289A] ; measured Percent Control: 71

Per the records, this molecule ( COC(=O)Nc1nc2ccc(Oc3ccc(NC(=O)Nc4cc(C(F)(F)F)ccc4F)cc3)cc2s1.Cl [GW693917A] ) has Percent Control equal to 99

The recorded Percent Control for entry NS(=O)(=O)c1ccc(N/N=C2\C(=O)Nc3ccc(-c4cnco4)cc32)cc1 [GW276655] equals 100

Lab note: COc1cccc(-n2ncc3c(N/N=C/c4ccncc4)ncnc32)c1 [GW784752X] gave Percent Control of 94

Reported Percent Control of COc1ccc2[nH]c3c4[nH]c5ccc(OC)cc5c4c4c(c3c2c1)C(=O)NC4=O [GW296115X] : 49

For record COc1cc2ncn(-c3cc(O[C@H](C)c4ccccc4Cl)c(C(N)=O)s3)c2cc1OC [GSK237701A] the listed Percent Control is 96

Entry NS(=O)(=O)c1ccc(Nc2ncc(-c3ccccc3)o2)cc1 [GW572399X] — recorded Percent Control = 100

* * *

Tested on: NEK7
experimental.context: Compound Concentration (nM):1000
Label class 1 when Percent Control is strictly below 90%; otherwise label class 0.

Previously resolved entries follow.
Cl.O=C(Nc1ccc(Oc2ccc3[nH]c(NC(=O)c4ccco4)nc3c2)cc1)Nc1cc(C(F)(F)F)ccc1F [GW683134A]    class 0
C[C@@H](Oc1cc(-n2cnc3ccc(OC4CCN(C)CC4)cc32)sc1C(N)=O)c1ccccc1Cl [GSK579289A]    class 1
O=C(Nc1n[nH]c2nc(-c3ccc(O)cc3)c(Br)cc12)C1CC1    class 1
COc1ccc2cc(-c3c(-c4ccncc4)nc(-c4ccc(S(C)(=O)=O)cc4C)n3C)ccc2c1    class 1
COc1cc2ncn(-c3cc(O[C@H](C)c4ccccc4Cl)c(C(N)=O)s3)c2cc1OC [GSK237701A]    class 1

For the next question, use this molecule.
Regarding Cl.O=C(Nc1ccc(Oc2ccc3[nH]c(NC(=O)c4ccccc4)nc3c2)cc1)Nc1cc(C(F)(F)F)ccc1F [GW709042A] , kindly confirm whether its Percent Control is beneath 90%. class 0

* * *

Test system: CDK4-cyclinD1
experimental.context: Compound Concentration (nM):1000
result.type: Percent Control (%)
Give the number; % is assumed, so skip it.

Solved cases below.
Cl.O=C(O[C@H]1CN[C@H](C#Cc2cc3ncnc(Nc4ccc5c(cnn5Cc5ccccc5)c4)c3s2)C1)N1CCOCC1 [GSK200398A]    68
Cl.O=C(Nc1ccc(Oc2ccc3[nH]c(NC(=O)c4ccccc4)nc3c2)cc1)Nc1cc(C(F)(F)F)ccc1F [GW709042A]    92
NS(=O)(=O)c1ccc(N/N=C2\C(=O)Nc3ccc(Cl)cc32)cc1 [GW280670X]    77

The record that follows has no Percent Control shown yet.
Percent Control reported for this compound Cc1cc(O)cc(C)c1/C=C/c1cncc(C(N)=O)c1 [GW435821X] : 97

* * *

System: KIT(V559D)
experimental.context: Compound Concentration (nM):1000
Quick reference for Percent Control among some compounds
The figure you give is taken to be in %; do not add the unit.

NS(=O)(=O)c1ccc(N/N=C2\C(=O)Nc3ccc(C(=O)NCCc4c[nH]cn4)cc32)cc1 [GW300660X]    100
Cl.O=C(Nc1ccc(Oc2ccc3[nH]c(NC(=O)c4ccccc4)nc3c2)cc1)Nc1cc(C(F)(F)F)ccc1F [GW709042A]    0.8
C/C(Nc1ccc(S(N)(=O)=O)cc1)=C1/C(=O)Nc2ccccc21 [GW335962X]    100
Cl.O=C(O[C@H]1CN[C@H](C#Cc2cc3ncnc(Nc4ccc5c(cnn5Cc5ccccc5)c4)c3s2)C1)N1CCOCC1 [GSK200398A]    100
COc1cc(/C=N/Nc2ncnc3[nH]ncc23)ccc1O [GW578748X]    44
COc1cc(C=NNc2ncnc3c2cnn3-c2ccccc2)ccc1O [GW513184X]    35
CCS(=O)(=O)c1ccc(OC)c(Nc2ncc(-c3cccc(F)c3)o2)c1 [GW621970X]    4.8

Now look at this one.
Sample COc1cc2ncnc(Nc3ccc4c(cnn4Cc4ccccc4)c3)c2cc1OC.Cl [GW282449A] , system: KIT(V559D). Its Percent Control is 98

* * *

Percent Control by entry:
Test system: CSNK1D
experimental.context: Compound Concentration (nM):1000
A number alone suffices; assume %.

COc1cc2ncnc(Nc3ccc4c(cnn4Cc4ccccc4)c3)c2cc1OC.Cl [GW282449A]    100
CN1CCN(C(=O)c2ccc(NC(=O)Nc3ccc(N(C)c4ccnc(Nc5ccc(CS(C)(=O)=O)cc5)n4)cc3)cc2)CC1.Cl [GW830263A]    99
Cl.c1ccc(Cc2nc3ccc(Nc4ncnc5ccccc45)cc3[nH]2)cc1 [GR269666A]    100
Cl.O=C(Nc1ccc(Oc2ccc3[nH]c(NC(=O)c4ccco4)nc3c2)cc1)Nc1cc(C(F)(F)F)ccc1F [GW683134A]    98
COc1cccc(-c2c[nH]c3c(N/N=C/c4ccncc4)ncnc23)c1 [GW814408X]    92

For record CCS(=O)(=O)c1ccc(OC)c(Nc2ncc(-c3cccc(F)c3)o2)c1 [GW621970X] the listed Percent Control is 100

# Percent Control (compound: C[C@@H](Oc1cc(-n2cnc3ccc(OC4CCN(C)CC4)cc32)sc1C(N)=O)c1ccccc1Cl [GSK579289A] ) is 80

Value of measured Percent Control for the entry Cl.O=S1CCN(Cc2ccc(-c3ccc4ncnc(Nc5ccc(OCc6ccccc6)c(F)c5)c4c3)o2)CC1 [GW576924A] : 100

Percent Control reported for this compound NS(=O)(=O)c1ccc(Nc2ncc(-c3ccccc3)o2)cc1 [GW572399X] : 100

* * *

Below, each entry is listed with its recorded Percent Control.
System: MAPKAPK2
experimental.context: Compound Concentration (nM):1000
Number in %, nothing else.

Recorded results for 5 molecules are shown here.
CN(C)CCNC(=O)Nc1ccc(N(C)c2ccnc(Nc3ccc(CS(C)(=O)=O)cc3)n2)cc1.Cl [GW830900A]    100
COc1cc(C)c(N(C)C(=O)CN(C)C)cc1Nc1nc(Nc2cccc(F)c2C(N)=O)c2cc[nH]c2n1    83
NS(=O)(=O)c1ccc(N/N=C2\C(=O)Nc3ccc(Cl)cc32)cc1 [GW280670X]    100
COc1cc(C=NNc2ncnc3c2cnn3-c2ccccc2)ccc1O [GW513184X]    100
CC1=C(C(=O)Nc2ccc3[nH]ncc3c2)C(c2ccc(Cl)c(Cl)c2)CC(=O)N1 (stereo not drawn) [GSK299115A]    96

Now let's try a different one.
Short answer for COc1cccc(-c2c[nH]c3c(N/N=C/c4ccncc4)ncnc23)c1 [GW814408X] : Percent Control was 100
